target: cardiac voltage-gated sodium channel (NaV1.5) (Homo sapiens, UniProt Q14524); construct: human NaV1.5 channels stably expressed in HEK-293 cells, without β-subunits; assay: whole-cell patch clamp, peak NaV1.[…] current at −[…] mV, HEK-293 cells
Sequence (Q14524 whole entry): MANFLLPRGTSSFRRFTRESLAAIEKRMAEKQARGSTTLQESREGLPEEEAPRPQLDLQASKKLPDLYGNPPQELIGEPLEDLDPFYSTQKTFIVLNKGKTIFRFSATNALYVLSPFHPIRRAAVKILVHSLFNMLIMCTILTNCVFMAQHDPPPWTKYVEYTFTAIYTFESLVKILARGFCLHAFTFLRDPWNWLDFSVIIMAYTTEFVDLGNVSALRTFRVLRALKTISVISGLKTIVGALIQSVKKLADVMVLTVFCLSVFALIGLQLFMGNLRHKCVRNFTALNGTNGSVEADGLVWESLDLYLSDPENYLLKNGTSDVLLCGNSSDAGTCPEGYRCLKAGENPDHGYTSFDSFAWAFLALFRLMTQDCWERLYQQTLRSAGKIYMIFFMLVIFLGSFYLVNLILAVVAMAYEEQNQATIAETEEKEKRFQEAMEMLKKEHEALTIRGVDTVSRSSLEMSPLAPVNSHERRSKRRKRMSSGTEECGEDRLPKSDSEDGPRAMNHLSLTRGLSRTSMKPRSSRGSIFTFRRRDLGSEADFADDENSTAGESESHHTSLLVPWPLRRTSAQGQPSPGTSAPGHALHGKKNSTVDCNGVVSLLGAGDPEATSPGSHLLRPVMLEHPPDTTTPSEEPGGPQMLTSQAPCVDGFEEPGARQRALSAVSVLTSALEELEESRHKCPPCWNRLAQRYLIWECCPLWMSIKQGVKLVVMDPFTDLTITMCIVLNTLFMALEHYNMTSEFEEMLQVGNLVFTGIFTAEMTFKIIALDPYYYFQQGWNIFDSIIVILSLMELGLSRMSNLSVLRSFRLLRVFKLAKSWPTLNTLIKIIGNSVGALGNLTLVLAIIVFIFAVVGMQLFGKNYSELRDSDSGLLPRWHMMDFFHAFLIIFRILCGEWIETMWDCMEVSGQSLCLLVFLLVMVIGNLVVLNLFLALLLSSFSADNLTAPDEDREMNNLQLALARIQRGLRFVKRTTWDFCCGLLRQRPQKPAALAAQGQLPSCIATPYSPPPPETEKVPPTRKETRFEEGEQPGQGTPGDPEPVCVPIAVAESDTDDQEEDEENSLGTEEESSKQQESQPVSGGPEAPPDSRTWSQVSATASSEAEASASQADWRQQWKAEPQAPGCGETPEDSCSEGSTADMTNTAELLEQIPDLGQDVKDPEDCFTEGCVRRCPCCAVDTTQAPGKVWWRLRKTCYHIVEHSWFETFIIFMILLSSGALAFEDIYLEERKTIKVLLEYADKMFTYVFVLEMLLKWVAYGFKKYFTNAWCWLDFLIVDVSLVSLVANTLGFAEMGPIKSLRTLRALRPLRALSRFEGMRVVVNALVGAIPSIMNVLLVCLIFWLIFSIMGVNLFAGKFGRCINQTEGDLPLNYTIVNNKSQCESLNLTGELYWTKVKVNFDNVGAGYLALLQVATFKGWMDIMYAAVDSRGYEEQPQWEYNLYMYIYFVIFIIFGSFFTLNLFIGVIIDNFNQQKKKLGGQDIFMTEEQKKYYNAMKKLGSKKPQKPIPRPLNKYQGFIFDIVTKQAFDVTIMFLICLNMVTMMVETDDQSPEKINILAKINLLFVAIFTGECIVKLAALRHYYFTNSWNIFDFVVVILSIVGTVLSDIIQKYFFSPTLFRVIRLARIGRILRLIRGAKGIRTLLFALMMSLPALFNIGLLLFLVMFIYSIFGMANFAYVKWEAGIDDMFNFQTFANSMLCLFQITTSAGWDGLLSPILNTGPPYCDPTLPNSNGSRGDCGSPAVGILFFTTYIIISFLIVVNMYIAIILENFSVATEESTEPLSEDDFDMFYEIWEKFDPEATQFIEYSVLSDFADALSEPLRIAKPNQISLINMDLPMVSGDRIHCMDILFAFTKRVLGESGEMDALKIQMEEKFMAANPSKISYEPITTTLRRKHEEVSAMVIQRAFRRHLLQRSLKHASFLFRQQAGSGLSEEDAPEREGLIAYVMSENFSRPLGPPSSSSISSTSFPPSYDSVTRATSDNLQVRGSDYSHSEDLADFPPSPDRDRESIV
observation-type: pIC50
pIC50 (log units): -log10 of the concentration in mol/L.

Recorded pIC50 (molecule Fc1ccc([C@@H]2CCNC[C@H]2COc2ccc3c(c2)OCO3)cc1 ): 5.17
